Read-out: E-selectin (Homo sapiens)
assay.summary: BSK_LPS_Eselectin: BioMAP Diversity Plus: LPS Assay for Eselectin Biomarker Activity (AID 2283077)
applied.conditions: primary human HUVEC with PBMC; actives raise or lower the signal
The source made the active and inactive calls. How the source made its calls: active means hit-call score of the fitted dose curve at least 0.9, where 1 is the maximum; inactive means score below 0.9.
Answer with one of the outcomes active, inactive

// known answers, use as guide
molecule: O=[N+]([O-])c1c(Cl)c(Cl)c(Cl)c(Cl)c1Cl
group.label: active

molecule: CNC(=O)Oc1cccc(N=CN(C)C)c1
group.label: active

molecule: CC(C)(C)C(O)/C(=C\c1ccc(Cl)cc1Cl)n1cncn1 (stereo not given)
group.label: active

molecule: CCOc1nc(NC)nc(NC(=O)NS(=O)(=O)c2ccccc2C(=O)OC)n1
group.label: inactive

Tell me the assay call for `Clc1ccccc1-c1nnc(-c2ccccc2Cl)nn1` please.
inactive

Could you check what this test reported for `CCS(=O)(=O)c1cccnc1S(=O)(=O)NC(=O)Nc1nc(OC)cc(OC)n1` ?
active

Outcome? `CCC(C)(C)C(=O)OC1=C(c2ccc(Cl)cc2Cl)C(=O)OC12CCCCC2`
active

Outcome? `COc1cc(OC)nc(NC(=O)NS(=O)(=O)c2cc(NC=O)ccc2C(=O)N(C)C)n1`
inactive

Outcome? `O=S(=O)(O)C(F)(F)C(F)(F)C(F)(F)C(F)(F)C(F)(F)C(F)(F)C(F)(F)C(F)(F)F`
inactive

Hey, what did the test say about `CCCN(CCOc1c(Cl)cc(Cl)cc1Cl)C(=O)n1ccnc1` ?
inactive

Entry ClC1C(Cl)C(Cl)C(Cl)C(Cl)C1Cl (stereo not given) : call = ?
inactive

Hi, do you know how `Cc1cc(C)nc(NC(=O)NS(=O)(=O)c2ccccc2C(=O)OC2COC2)n1` came out in this test?
inactive

====

Read-out: Tissue plasminogen activator (tPA), PLAT (gene 5327)
assay.summary: BSK_BE3C_tPA: BioMAP Diversity Plus: BE3C Assay for Tissue plasminogen activator (tPA) Biomarker Activity (AID 2283041)
applied.conditions: primary human bronchial epithelial cells; actives raise or lower the signal
Active and inactive are the calls of the source. How the source made its calls: active means hit-call score of the fitted dose curve at least 0.9, where 1 is the maximum; inactive means score below 0.9.
Allowed answers: 1 (yes) for active, 0 (no) for inactive

# example entries with known answers
compound: CCS(=O)(=O)c1cccnc1S(=O)(=O)NC(=O)Nc1nc(OC)cc(OC)n1
group.label: 0 (no)

compound: CC(C)(C)C(O)C(Oc1ccc(Cl)cc1)n1cncn1 (configuration not stated)
group.label: 0 (no)

compound: O=C(O)CCCOc1ccc(Cl)cc1Cl
group.label: 0 (no)

compound: CCN(CC)C(=O)SCc1ccc(Cl)cc1
group.label: 0 (no)

compound: CCC(C)Nc1c([N+](=O)[O-])cc(C(C)(C)C)cc1[N+](=O)[O-] (configuration not stated)
group.label: 0 (no)

Assay result, entry `CCc1ccc(C(=O)NN(C(=O)c2cc(C)cc(C)c2)C(C)(C)C)cc1` — outcome?
0 (no)

Test call, this compound: ClC1C(Cl)C(Cl)C(Cl)C(Cl)C1Cl (configuration not stated)
0 (no)

Identify the outcome logged in this assay for the compound shown: `CCCN(CCOc1c(Cl)cc(Cl)cc1Cl)C(=O)n1ccnc1`
0 (no)

Could you kindly confirm the outcome this assay logged for `Clc1ccccc1-c1nnc(-c2ccccc2Cl)nn1` ?
0 (no)

Record request — test call for `O=C(Nc1ccccc1)Nc1cnns1`
0 (no)

What did the test return for `O=[N+]([O-])/N=C1\NCCN1Cc1ccc(Cl)nc1` ?
0 (no)

Status in this test for `Oc1ccc(Cl)cc1Cc1ccccc1` ?
1 (yes)

====

assay.summary: ATG_AP_1_CIS: Attagene CIS-FACTORIAL HepG2 Assay for human Activator Protein 1 (AP-1) (AID 2282931)
applied.conditions: HepG2 Attagene cis-factorial AP-1 reporter mRNA; actives raise or lower the signal
Calls of active or inactive are those of the source. How the source made its calls: active means hit-call score of the fitted dose curve at least 0.9, where 1 is the maximum; inactive means score below 0.9.
Your reply should match one of these outcome classes. active, inactive

molecule: [2H]C1([2H])[n+]2ccccc2-c2cccc[n+]2C1([2H])[2H]
group.label: active

Query: recorded result category for `OCCOc1ccccc1` in this test
inactive

Record request — test call for `CNC(=O)/C=C(\C)OP(=O)(OC)OC`
inactive

// param item: CC1(c2ccc(Oc3ccccc3)cc2)OC(=O)N(Nc2ccccc2)C1=O (stereo unspecified) ; yields the recorded call
inactive

Could you kindly confirm the outcome this assay logged for `CCS(=O)(=O)c1cccnc1S(=O)(=O)NC(=O)Nc1nc(OC)cc(OC)n1` ?
inactive

State the result this test recorded for `COP(=S)(OC)Oc1ccc(SC)c(C)c1` .
inactive

====

Read-out: flavin-containing dimethylaniline monooxygenases 3 (FMO3), FMO3 (gene 2328)
assay.summary: LTEA_HepaRG_FMO3: Life Technologies and Expression Analysis (LTEA) Assay for flavin-containing dimethylaniline monooxygenases 3 (FMO3) using HepaRG (AID 2283453)
applied.conditions: mRNA level, 48 h; actives raise or lower the signal
Calls of active or inactive are those of the source. How the source made its calls: active means hit-call score of the fitted dose curve at least 0.9, where 1 is the maximum; inactive means score below 0.9.
Log the outcome using a class from y for active, n for inactive

compound: CC(C)OC(=O)Nc1cccc(Cl)c1
group.label: n

compound: Cc1[nH]c(=O)n(C(C)(C)C)c(=O)c1Cl
group.label: n

compound: CC1(C)C(C=C(Cl)Cl)C1C(=O)OC(C#N)c1ccc(F)c(Oc2ccccc2)c1 (stereo not drawn)
group.label: n

compound: O=[N+]([O-])c1c(Cl)c(Cl)c(Cl)c(Cl)c1Cl
group.label: n

compound: C#CCN1C(=O)COc2cc(F)c(N3C(=O)C4=C(CCCC4)C3=O)cc21
group.label: n

compound: C[C@H]1[C@H](c2ccc(Cl)cc2)SC(=O)N1C(=O)NC1CCCCC1
group.label: y

Could you kindly confirm the outcome this assay logged for CC[C@H](C)[C@H]1O[C@]2(C=C[C@@H]1C)C[C@@H]1C[C@@H](C/C=C(\C)[C@@H](O[C@H]3C[C@H](OC)[C@@H](O[C@H]4C[C@H](OC)[C@@H](O)[C@H](C)O4)[C@H](C)O3)[C@@H](C)/C=C/C=C3\CO[C@@H]4[C@H](O)C(C)=C[C@@H](C(=O)O1)[C@]34O)O2 (tested in a mixture with another compound) ?
y

# outcome recorded in this test, key = `CNC(=O)Oc1cccc(N=CN(C)C)c1`
n

====

assay.summary: CCTE_Mundy_HCI_Cortical_Synap_Neur_Matur_SynapseCount: CCTE's Synaptogenesis and Neurite Maturation Assay in rat cortical cells for Synapse Count, Mundy Lab (AID 2284218)
The source made the active and inactive calls. Rule for the calls: active = hit-call score of the fitted dose curve at least 0.9, where 1 is the maximum; inactive = score below 0.9.
property.name: AC50

compound: O=S(=O)(O)C(F)(F)C(F)(F)C(F)(F)C(F)(F)C(F)(F)C(F)(F)C(F)(F)C(F)(F)F
result: inactive
//
compound: CC(C)N(C(=O)COc1nnc(C(F)(F)F)s1)c1ccc(F)cc1
result: inactive
//
compound: COP(=S)(OC)Oc1ccc([N+](=O)[O-])cc1
result: inactive
//
compound: CC1(c2ccc(Oc3ccccc3)cc2)OC(=O)N(Nc2ccccc2)C1=O (stereo not drawn)
result: 40 µM (active)

Hi there! I need AC50 for each item below, if you can.
1. CC[C@H](C)[C@H]1O[C@]2(C=C[C@@H]1C)C[C@@H]1C[C@@H](C/C=C(\C)[C@@H](O[C@H]3C[C@H](OC)[C@@H](O[C@H]4C[C@H](OC)[C@@H](O)[C@H](C)O4)[C@H](C)O3)[C@@H](C)/C=C/C=C3\CO[C@@H]4[C@H](O)C(C)=C[C@@H](C(=O)O1)[C@]34O)O2 (tested in a mixture with another compound)
2. O=C(O)COc1ccc(Cl)cc1Cl

1.41 µM (active)
inactive

Take each entry in turn and give its AC50.
1. O=[N+]([O-])/N=C1\NCCN1Cc1ccc(Cl)nc1
2. CCC(C)(C)C(=O)OC1=C(c2ccc(Cl)cc2Cl)C(=O)OC12CCCCC2

1: inactive; 2: inactive

====

Would you mind telling me the reported AC50 of each entry?
assayed.system: human Dopamine Transporter (DAT), SLC6A3 (gene 6531) (UniProt Q01959)
Sequence (Q01959 whole entry, looked up): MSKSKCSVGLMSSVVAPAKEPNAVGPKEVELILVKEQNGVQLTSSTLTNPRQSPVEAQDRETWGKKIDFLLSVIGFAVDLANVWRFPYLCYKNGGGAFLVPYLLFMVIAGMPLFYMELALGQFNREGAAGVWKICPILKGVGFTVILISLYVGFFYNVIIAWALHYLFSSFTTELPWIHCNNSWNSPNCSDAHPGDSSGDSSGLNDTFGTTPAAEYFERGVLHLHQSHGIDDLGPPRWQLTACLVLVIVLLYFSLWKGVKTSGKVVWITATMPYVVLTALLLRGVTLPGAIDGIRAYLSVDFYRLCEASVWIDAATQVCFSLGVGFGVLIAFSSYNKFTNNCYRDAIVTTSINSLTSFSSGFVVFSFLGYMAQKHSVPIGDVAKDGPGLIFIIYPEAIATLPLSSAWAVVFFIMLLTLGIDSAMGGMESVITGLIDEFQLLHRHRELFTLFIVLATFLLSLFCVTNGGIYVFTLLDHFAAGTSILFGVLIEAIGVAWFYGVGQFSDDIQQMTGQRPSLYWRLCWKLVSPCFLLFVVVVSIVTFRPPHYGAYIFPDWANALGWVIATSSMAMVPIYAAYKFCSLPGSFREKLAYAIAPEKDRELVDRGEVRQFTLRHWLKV
assay.summary: NVS_TR_hDAT: NovaScreen (NVS) Transporter Assay for human Dopamine Transporter (DAT) (AID 2283374);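 further: activity means loss of bound radioligand signal relative to DMSO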
Protocol: NVS_TR_hDAT is a biochemical, single-readout assay that uses extracted gene-proteins in a cell-free assay. Measurements were taken 1 hour after chemical dosing in a 96-well plate.NVS_TR_hDAT is one of one assay component(s) measured or calculated from the NVS_TR_hDAT assay. […] This assay endpoint, NVS_TR_hDAT, was analyzed in the positive analysis fitting direction relative to DMSO as the negative control and baseline of activity. […]
Records with an inconclusive call do not appear. Active and inactive are the calls of the source. The calls were made as follows: active = hit-call score of the fitted dose curve at least 0.9, where 1 is the maximum; inconclusive = response in the unintended direction; inactive = score below 0.9.

Here is how some molecules turned out for AC50.
molecule: CC(C)OC(=O)Nc1cccc(Cl)c1
AC50: 16.3 µM (active)
//
molecule: Oc1ccc(Cl)cc1Cc1ccccc1
AC50: 3.69 µM (active) [middle of 8 runs]

I have 3 molecules here; please give me AC50 for each one.
1. CCCN(CCOc1c(Cl)cc(Cl)cc1Cl)C(=O)n1ccnc1
2. CC[C@H](C)[C@H]1O[C@]2(C=C[C@@H]1C)C[C@@H]1C[C@@H](C/C=C(\C)[C@@H](O[C@H]3C[C@H](OC)[C@@H](O[C@H]4C[C@H](OC)[C@@H](O)[C@H](C)O4)[C@H](C)O3)[C@@H](C)/C=C/C=C3\CO[C@@H]4[C@H](O)C(C)=C[C@@H](C(=O)O1)[C@]34O)O2 (tested in a mixture with another compound)
3. CCN(CC)C(=O)SCc1ccc(Cl)cc1

1. 6.06 µM (active)
2. 11.3 µM (active)
3. 7.71 µM (active)

The reported measurements were obtained from PubChem BioAssay (EPA / NIEHS).
